# Tested on: T1, human EGFRvIII protein on the cell surface (human, UniProt P00533 25-1210)
# T1 construct: whole, on cells; the cell line is named under assay; also called hEGFRvIII; U87MG-hEGFRvIII
# Experiment summary: FACS on CHOk1-EGFRvIII cells
# Method: The desired cells are subjected to an expanded culture to 90% confluence in a T-75 cell culture flask; the medium is sucked out, and the cells are washed twice with a HBSS buffer (Hanks Balanced Salt Solution) (purchased from Invitrogen), and then treated with an enzyme-free cell dissociation solution (Versene solution: purchased from Life Technology) and collected. […] Data analysis is performed by using the software (CellQuest) to obtain the mean fluorescence intensity (MFI) of the cells. […]
Please respond with YES when measured EC50 is strictly beneath 10 nM, and with NO in all other cases.

These recorded examples may help you get a feel for the data.
c75G7C6-1 (antibody, human IgG1, V domains shown, Chimeric 75G7C6 with NG of heavy chain CDR2 mutated to NA; also called c754G7C6-1; mutant chimeric antibody NG/NA) VH: EVQLQQSGPELVKPGASVKIPCKASGYTFTDYNMDWVKQSHGKSLEWIGDINPNNADTIYNQKFKGKATLTVDKSSSTAYMELRSLTSEDTAVYYCARGDYDGYYPVYYAMDYWGQGTSVTVSS VL: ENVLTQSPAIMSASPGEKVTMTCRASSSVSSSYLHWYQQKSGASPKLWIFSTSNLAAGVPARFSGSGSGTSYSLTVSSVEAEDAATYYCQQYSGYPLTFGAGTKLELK :: YES
Chimeric antibody 75G7 (antibody, human IgG1, V domains shown, also called c75G7C6; chimeric antibody c75G7C6) VH: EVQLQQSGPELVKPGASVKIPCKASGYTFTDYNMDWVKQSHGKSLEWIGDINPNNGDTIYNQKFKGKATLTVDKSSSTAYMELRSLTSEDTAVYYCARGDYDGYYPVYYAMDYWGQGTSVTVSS VL: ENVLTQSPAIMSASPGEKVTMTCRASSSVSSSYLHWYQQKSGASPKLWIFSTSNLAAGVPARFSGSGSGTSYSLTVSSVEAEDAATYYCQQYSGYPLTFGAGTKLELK :: NO
c75G7C6-2 (antibody, human IgG1, V domains shown, Chimeric 75G7C6 with NG of heavy chain CDR2 mutated to QG; also called c754G7C6-2; mutant chimeric antibody NG/QG) VH: EVQLQQSGPELVKPGASVKIPCKASGYTFTDYNMDWVKQSHGKSLEWIGDINPNQGDTIYNQKFKGKATLTVDKSSSTAYMELRSLTSEDTAVYYCARGDYDGYYPVYYAMDYWGQGTSVTVSS VL: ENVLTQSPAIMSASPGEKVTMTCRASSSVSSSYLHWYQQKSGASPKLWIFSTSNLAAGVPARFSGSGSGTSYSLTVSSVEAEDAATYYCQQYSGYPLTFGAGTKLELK :: NO

Please state whether EC50 is below 10 nM for c75G7C6-4 (antibody, human IgG1, V domains shown, Chimeric 75G7C6 with DG of heavy chain CDR3 mutated to SG; Human IgG1/kappa; also called mutant chimeric antibody DG/SG) VH: EVQLQQSGPELVKPGASVKIPCKASGYTFTDYNMDWVKQSHGKSLEWIGDINPNNGDTIYNQKFKGKATLTVDKSSSTAYMELRSLTSEDTAVYYCARGDYSGYYPVYYAMDYWGQGTSVTVSS VL: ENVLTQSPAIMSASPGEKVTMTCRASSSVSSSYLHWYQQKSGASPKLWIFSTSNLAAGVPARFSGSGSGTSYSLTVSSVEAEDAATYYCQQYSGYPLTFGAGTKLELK NO

Please state whether EC50 is below 10 nM for c75G7C6-3 (antibody, human IgG1, V domains shown, Chimeric 75G7C6 with DG of heavy chain CDR3 mutated to EG; Human IgG1/kappa; also called mutant chimeric antibody DG/EG) VH: EVQLQQSGPELVKPGASVKIPCKASGYTFTDYNMDWVKQSHGKSLEWIGDINPNNGDTIYNQKFKGKATLTVDKSSSTAYMELRSLTSEDTAVYYCARGDYEGYYPVYYAMDYWGQGTSVTVSS VL: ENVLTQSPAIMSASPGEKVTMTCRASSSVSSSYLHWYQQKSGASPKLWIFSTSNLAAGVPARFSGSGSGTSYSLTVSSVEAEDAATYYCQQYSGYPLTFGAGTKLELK NO
